B1: glmS ribozyme (parent)
chain: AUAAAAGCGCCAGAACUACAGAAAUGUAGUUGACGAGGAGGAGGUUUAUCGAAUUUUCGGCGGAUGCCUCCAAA

Variants of: B1
Assay: kcat; higher = faster cleavage; RNA array
Conditions: with glucosamine-6-phosphate
Fewer inactive variants are shown than the library holds.
Measured kcat by item
Please give a number only; it is taken to be in s⁻¹.

The examples below pair each entry with its known result.
C16G U47A: 0.00274
A15G U47C: 0.0057
U46G U47G: 0.00226

Q: Return reported kcat; argument: A14G G37A U54A
Ans: 0.00578

Q: Return reported kcat; argument: U55A A64U
Ans: 0.000202

Q: Return reported kcat; argument: G44C
Ans: 0.0002

Q: Return reported kcat; argument: A42U A53G
Ans: 0.000266

Q: Return reported kcat; argument: G13C A15G U45A
Ans: 0.000289

Q: Return reported kcat; argument: A12U C50A
Ans: 0.000111

Q: Return reported kcat; argument: A14U A52U
Ans: 0.000167

Q: Return reported kcat; argument: U30A U55G
Ans: 0.00534

Q: Return reported kcat; argument: U49G U69A
Ans: 4.14e-05

Q: Return reported kcat; argument: A39G U56A U57G G60U C67U C70U
Ans: 1.31e-05

Q: Return reported kcat; argument: A48U A52G
Ans: 1.32e-05

Q: Return reported kcat; argument: G13C U31C G32U U65G C67U
Ans: 6.88e-05

Q: Return reported kcat; argument: U31G U47G A48G
Ans: 1.96e-05

Q: Return reported kcat; argument: G41A U47C
Ans: 7.04e-05

Q: Return reported kcat; argument: U46C U55C
Ans: 0.00703

Q: Return reported kcat; argument: A33C U47A
Ans: 0.000256

Q: Return reported kcat; argument: C10U A12G
Ans: 2.19e-05

Q: Return reported kcat; argument: G29C U49G
Ans: 1.82e-05

Q: Return reported kcat; argument: A42C C70U
Ans: 1.24e-05

Q: Return reported kcat; argument: A14C U30C
Ans: 1.53e-05

Q: Return reported kcat; argument: A42G G43A
Ans: 0.000155

Q: Return reported kcat; argument: G32U C50G C71G
Ans: 0.000195
